- SYSTEM_NAME: CaFus1
- PROCEDURE_TEXT: SPOT peptide array binding signal intensity (averaged, normalized) (arbitrary units (background-subtracted, floor 0; scale differs between SH3 domains)); higher = stronger binding of the SH3 domain to the peptide
Below, each of the binders is paired with its reported SPOT peptide array binding signal intensity value.
Just the number, please.

- BINDER: "NPLPKEPRLPKRKVA"
  RESULT_VALUE: 190
- BINDER: "HKVLRPFLLRRLKKD"
  RESULT_VALUE: 2980

Shift focus to the following entry.
Requested field: SPOT peptide array binding signal intensity. Item: `FPGKKSPRLPHRNKK`
232
